Data provenance is patent US20230176070A1.

# ELISA affinity (LogIC50 (oD450nm)) per entry
target: T1, human serum albumin (human, UniProt P02768 25-609); assay: indirect ELISA, HSA coated
T1 construct: In the mutant screen wild type HSA came from medium of transfected HeLa cells; also called HSA; wild type HSA
T1 sequence (P02768 25-609 limits assumed): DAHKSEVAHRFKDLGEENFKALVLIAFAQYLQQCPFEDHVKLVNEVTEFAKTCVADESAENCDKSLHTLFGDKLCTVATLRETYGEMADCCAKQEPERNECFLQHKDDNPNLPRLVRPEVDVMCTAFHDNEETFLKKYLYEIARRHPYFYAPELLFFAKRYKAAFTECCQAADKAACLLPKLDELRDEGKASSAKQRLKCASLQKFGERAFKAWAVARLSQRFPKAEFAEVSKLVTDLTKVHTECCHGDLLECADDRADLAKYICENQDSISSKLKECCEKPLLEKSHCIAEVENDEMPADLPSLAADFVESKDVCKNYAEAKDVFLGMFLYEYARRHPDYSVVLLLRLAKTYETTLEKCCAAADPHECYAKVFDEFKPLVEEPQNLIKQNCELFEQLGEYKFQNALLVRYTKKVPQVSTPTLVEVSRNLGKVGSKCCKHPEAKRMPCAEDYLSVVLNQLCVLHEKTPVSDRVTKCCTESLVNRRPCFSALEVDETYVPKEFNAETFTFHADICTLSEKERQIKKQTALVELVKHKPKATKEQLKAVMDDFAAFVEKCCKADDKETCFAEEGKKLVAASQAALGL
Output spec: single numeric token, no unit.

Consider the worked cases shown below.
>>> quantitative_readout("H11 (VHH) VHH: QVQLVESGGGLVQVGGSLRLSCAASGRTFSNYVMGWFRQAPGKEREFVAYIHWSGSSTSYADSVKGRFTISRDNTKNTMYLQMNSLKPEDTAVYYCTADQYASTLLRAAGEYWGQGTQVTVSS")
6.27
>>> quantitative_readout("H16 (VHH) VHH: QVQLVESGGGLVQTGGSLTLSCAASGRTFSTKSMGWFRQAPGKEREFVADINWNGGITHYADSVEGRFTISRDNANDMVYLQMNSLKPEDTAVYYCAGGRYSTLFSKSEADYDYWGQGTQVTVSS")
5.99
>>> quantitative_readout("H14 (VHH) VHH: HVQLVESGGGLVQAGGSLRLSCTASGRTFTPYTMGWFRQAPGKEREFVASILWSGNNRDYADSVKDRFAISRDNAKNTAYLQMNSLKPEDTAVYYCAAGDGLGFYRSVNQYDYWGQGTQVTVSS")
5.96

Input: Given the binder H3 (VHH) VHH: QVQLVESGGGLVQAGGSLRLSCVASGRTFEPFVMGWFRQAPGKEREFVATISWSGGSLSYADSVKGRFTVSRDNAKNTVYLQMNSLKPEDTAVYYCAAAPGVGNYRYTFQYDYWGQGTQVTVSE , what is its reported ELISA affinity (LogIC50 (oD450nm))?
Output: 7
